- assay.name: Inhibition of human RNase H by FRET assay
pIC50: −log10 of the molar value.
Classification field: enter 1.0 for pIC50 values not below 6, 0.0 for values below it.

O=C(O[C@@H]1[C@@H](OC(=O)c2cc(O)c(O)c(O)c2)[C@H](Oc2ccc(O)cc2)O[C@@H]2COC(=O)c3cc(O)c(O)c(O)c3-c3c(cc(O)c(O)c3O)C(=O)O[C@@H]12)c1cc(O)c(O)c(O)c1 [HYEMALOSIDE C]: 1.0

Prompt line: Has O=C(OC[C@H]1O[C@@H](Oc2ccc(O)cc2)[C@H](OC(=O)c2cc(O)c(O)c(O)c2)[C@@H](O)[C@@H]1O)c1ccc(O)cc1 [HYEMALOSIDE B] a recorded pIC50 greater than or equal to 6?
Response line: 0.0

Prompt line: Has C[C@H]1O[C@H](Oc2c(-c3ccc(O)cc3)oc3cc(O)cc(O)c3c2=O)[C@@H](OC(=O)c2cc(O)c(O)c(O)c2)[C@@H](O)[C@H]1O a recorded pIC50 greater than or equal to 6?
Response line: 0.0

Prompt line: Has O=C(OC[C@H]1O[C@@H](Oc2ccc(O)cc2)[C@H](OC(=O)c2cc(O)c(O)c(O)c2)[C@@H](OC(=O)c2cc(O)c(O)c(O)c2)[C@@H]1O)c1cc(O)c(O)c(O)c1 [HYEMALOSIDE A] a recorded pIC50 greater than or equal to 6?
Response line: 1.0

Prompt line: Has O=C(O[C@H]1[C@H](O)[C@@H](O)[C@H](Oc2ccc(O)cc2)O[C@@H]1CO)c1cc(O)c(O)c(O)c1 a recorded pIC50 greater than or equal to 6?
Response line: 0.0

Prompt line: Has O=C(OC[C@H]1O[C@@H](Oc2ccc(O)cc2)[C@H](OC(=O)c2cc(O)c(O)c(O)c2)[C@@H](O)[C@@H]1OC(=O)c1cc(O)c(O)c(O)c1)c1cc(O)c(O)c(O)c1 a recorded pIC50 greater than or equal to 6?
Response line: 1.0

---

- assay.name: Inhibition of HIV1 RNase H by FRET assay
- Design: species or system Human immunodeficiency virus 1
pIC50: −log10 of the molar value.
readout: pIC50

Some solved cases for reference:
O=C(OC[C@H]1O[C@@H](Oc2ccc(O)cc2)[C@H](OC(=O)c2cc(O)c(O)c(O)c2)[C@@H](OC(=O)c2cc(O)c(O)c(O)c2)[C@@H]1O)c1cc(O)c(O)c(O)c1 [HYEMALOSIDE A]: 5.84
C[C@H]1O[C@H](Oc2c(-c3ccc(O)cc3)oc3cc(O)cc(O)c3c2=O)[C@@H](OC(=O)c2cc(O)c(O)c(O)c2)[C@@H](O)[C@H]1O: < 4.77

Give pIC50 for all compounds that follow.
1. O=C(OC[C@H]1O[C@@H](Oc2c(-c3ccc(O)cc3)oc3cc(O)cc(O)c3c2=O)[C@H](O)[C@@H](O)[C@@H]1O)c1cc(O)c(O)c(O)c1
2. O=C(O[C@H]1[C@H](O)[C@@H](O)[C@H](Oc2ccc(O)cc2)O[C@@H]1CO)c1cc(O)c(O)c(O)c1
3. O=C(O[C@H]1[C@H](Oc2ccc(O)cc2)O[C@H](CO)[C@@H](O)[C@@H]1O)c1cc(O)c(O)c(O)c1
4. C[C@H]1O[C@H](Oc2c(-c3ccc(O)cc3)oc3cc(O)cc(O)c3c2=O)[C@@H](O)[C@@H](OC(=O)c2cc(O)c(O)c(O)c2)[C@H]1O

Response line:
1: < 4.78; 2: < 4.63; 3: < 4.63; 4: < 4.77
